biological target: p110δ/p85α (Homo sapiens (Human)); assay: PI3K δ inhibition assay (TLC lipid kinase or HTRF)
Sequence (O00329 whole entry): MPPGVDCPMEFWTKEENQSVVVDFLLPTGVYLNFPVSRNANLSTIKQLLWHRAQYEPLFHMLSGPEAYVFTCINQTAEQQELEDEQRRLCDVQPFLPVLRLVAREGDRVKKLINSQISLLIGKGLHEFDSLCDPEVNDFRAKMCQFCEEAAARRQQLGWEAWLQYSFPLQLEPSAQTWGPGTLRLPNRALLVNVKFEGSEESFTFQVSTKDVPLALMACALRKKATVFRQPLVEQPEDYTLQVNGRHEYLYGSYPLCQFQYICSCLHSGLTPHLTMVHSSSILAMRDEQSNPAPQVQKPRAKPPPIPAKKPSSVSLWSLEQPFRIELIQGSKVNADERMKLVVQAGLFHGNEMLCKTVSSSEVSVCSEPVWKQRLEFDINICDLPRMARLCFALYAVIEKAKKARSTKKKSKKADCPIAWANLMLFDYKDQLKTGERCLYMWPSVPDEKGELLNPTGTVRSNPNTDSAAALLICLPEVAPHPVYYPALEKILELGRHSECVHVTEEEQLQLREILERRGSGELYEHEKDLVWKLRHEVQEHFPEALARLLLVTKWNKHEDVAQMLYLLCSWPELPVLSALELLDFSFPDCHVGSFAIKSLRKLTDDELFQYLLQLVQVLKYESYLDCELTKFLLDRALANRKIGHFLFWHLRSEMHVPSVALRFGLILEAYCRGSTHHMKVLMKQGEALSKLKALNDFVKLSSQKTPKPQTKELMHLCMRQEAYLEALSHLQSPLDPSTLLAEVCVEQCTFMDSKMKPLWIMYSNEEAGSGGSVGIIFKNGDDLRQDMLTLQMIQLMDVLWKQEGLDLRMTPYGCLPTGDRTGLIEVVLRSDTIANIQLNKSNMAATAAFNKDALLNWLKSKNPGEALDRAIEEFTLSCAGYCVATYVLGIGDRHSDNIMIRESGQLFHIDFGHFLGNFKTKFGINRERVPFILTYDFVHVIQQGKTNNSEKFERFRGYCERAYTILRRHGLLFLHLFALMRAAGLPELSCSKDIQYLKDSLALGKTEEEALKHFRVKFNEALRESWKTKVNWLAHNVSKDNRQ
Sequence (P27986 whole entry partner): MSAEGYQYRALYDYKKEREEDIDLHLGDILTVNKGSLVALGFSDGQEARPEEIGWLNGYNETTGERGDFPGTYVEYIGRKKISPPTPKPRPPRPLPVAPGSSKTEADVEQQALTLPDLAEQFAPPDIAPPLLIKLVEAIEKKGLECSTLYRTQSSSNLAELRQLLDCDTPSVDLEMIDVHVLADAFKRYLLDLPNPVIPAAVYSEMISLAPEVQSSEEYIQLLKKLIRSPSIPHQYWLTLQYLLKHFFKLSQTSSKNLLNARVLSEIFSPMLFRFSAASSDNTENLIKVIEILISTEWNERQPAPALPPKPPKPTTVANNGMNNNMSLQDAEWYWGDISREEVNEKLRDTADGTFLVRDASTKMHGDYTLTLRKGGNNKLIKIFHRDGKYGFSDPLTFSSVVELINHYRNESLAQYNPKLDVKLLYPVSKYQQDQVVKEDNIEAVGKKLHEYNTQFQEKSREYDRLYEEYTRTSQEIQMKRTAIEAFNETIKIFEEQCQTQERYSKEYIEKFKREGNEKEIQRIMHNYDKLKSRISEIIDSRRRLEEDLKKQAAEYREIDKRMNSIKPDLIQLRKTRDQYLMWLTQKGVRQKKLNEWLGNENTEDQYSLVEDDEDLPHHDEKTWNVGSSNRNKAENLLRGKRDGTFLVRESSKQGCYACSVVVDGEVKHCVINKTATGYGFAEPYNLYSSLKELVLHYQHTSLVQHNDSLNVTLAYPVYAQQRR
pIC50: −log10 of the molar value.
This listing pairs compounds with measured pIC50.

[[record]]
compound = "CC(C)c1ccccc1-c1nc2ccccc2cc1Cn1nc(C#C[C@@H](C)O)c2c(N)ncnc21"
assay_system = "p110δ/p85α (Homo sapiens (Human))"
obs_value = "> 7.00"

[[record]]
compound = "CC(Nc1ncnc2[nH]cnc12)c1cc2ccccc2nc1-c1ccccc1 (centres unmarked)"
assay_system = "p110δ/p85α (Homo sapiens (Human))"
obs_value = "> 7.00"

[[record]]
compound = "Cc1cccc2cc(Cn3nc(I)c4c(N)ncnc43)c(N3CCCC3)nc12"
assay_system = "p110δ/p85α (Homo sapiens (Human))"
obs_value = "> 7.00"


Ask: # query: pIC50 of entry Nc1ncnc2c1c(-c1cc(O)cc(F)c1)nn2Cc1cc2c(nc1-c1ccccc1F)CCC2
Result: 6.00 to 7.00

Ask: Please answer likewise for Nc1ncnc2c1c(-c1cccc(O)c1)nn2Cc1cccnc1N1CCCC1
Result: < 6.00

Ask: Nc1ncnc2c1c(-c1cnc3[nH]ccc3c1)nn2Cc1cc2ccccc2nc1N1CCCC1 , same question.
Result: > 7.00

Ask: Now consider Cc1cccc2cc(Cn3nc(-c4cccc(O)c4)c4c(N)ncnc43)c(N3CCOCC3)nc12 and answer again.
Result: > 7.00
